Target: CDK2/Cyclin E1 (Homo sapiens, UniProt P24941)
Test: NanoBRET live-cell target engagement, CDK2-NanoLuc/Cyclin E1 in HEK-293
Format: binding
Conditions: independent experiment 1; read-out: CDK2/E1 IC50
Recorded Endpoint: IC50 (nM)
One number for each entry, in nM.

Check the records and state IC50 for COCCN1CCN(Cc2ccc(-c3n[nH]c4c3C(=O)c3c(NC(=O)NN5CCOCC5)cccc3-4)cc2)CC1 [RGB286638]
8.9

* * *

Target: CDK9/Cyclin K (Homo sapiens, UniProt P50750)
Sequence (P50750 whole entry, one chain of several): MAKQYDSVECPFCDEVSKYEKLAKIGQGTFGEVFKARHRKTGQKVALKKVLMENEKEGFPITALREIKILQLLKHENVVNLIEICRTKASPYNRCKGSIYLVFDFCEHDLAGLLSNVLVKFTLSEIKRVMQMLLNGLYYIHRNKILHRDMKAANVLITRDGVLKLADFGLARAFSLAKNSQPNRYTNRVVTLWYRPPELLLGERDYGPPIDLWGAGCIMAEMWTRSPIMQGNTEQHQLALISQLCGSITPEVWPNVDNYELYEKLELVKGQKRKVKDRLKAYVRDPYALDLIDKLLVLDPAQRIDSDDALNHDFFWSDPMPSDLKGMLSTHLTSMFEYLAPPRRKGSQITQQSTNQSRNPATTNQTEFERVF
Experiment: NanoBRET live-cell target engagement, NanoLuc-CDK9/Cyclin K in HEK-293
Format: binding
Conditions: CDK9/K; 10µM
Recorded Endpoint: Inhibition at 10µM (%) Replicate 2
Numbers only, in %.

Completed entries (count: 3):
O=C(Nc1c[nH]nc1-c1ccccn1)c1nn(C2CCNCC2)cc1Cl    29.1
CNC1CCN(C(=O)c2ccc(Nc3ncc(F)c(-c4cnc(C)n4C(C)C)n3)cc2)C1 (stereo not shown)    100.7
CC(C)c1cnn2c(NCc3ccccc3)cc(N[C@@H](CO)[C@H](O)CO)nc12    98.0

Then there is this compound:
Quote CDK9/Cyclin K (Homo sapiens, UniProt P50750) Inhibition at 10µM (%) Replicate 2 for entry CCC(CO)Nc1nc(Nc2cccc(-c3ccccn3)c2)c2ncn(C(C)C)c2n1.Cl.O [(R) - DRF053] .
27.7

* * *

Molecular target: CDK1/Cyclin E1 (Homo sapiens, UniProt P06493)
Sequence (P06493 whole entry): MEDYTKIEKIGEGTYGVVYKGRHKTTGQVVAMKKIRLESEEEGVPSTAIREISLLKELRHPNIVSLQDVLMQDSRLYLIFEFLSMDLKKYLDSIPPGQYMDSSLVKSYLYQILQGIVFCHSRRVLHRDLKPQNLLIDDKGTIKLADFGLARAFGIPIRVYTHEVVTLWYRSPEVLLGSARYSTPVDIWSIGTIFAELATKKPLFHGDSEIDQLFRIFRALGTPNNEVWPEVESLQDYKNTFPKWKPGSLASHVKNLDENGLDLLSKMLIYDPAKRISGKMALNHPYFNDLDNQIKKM
Sequence (P24864 whole entry partner): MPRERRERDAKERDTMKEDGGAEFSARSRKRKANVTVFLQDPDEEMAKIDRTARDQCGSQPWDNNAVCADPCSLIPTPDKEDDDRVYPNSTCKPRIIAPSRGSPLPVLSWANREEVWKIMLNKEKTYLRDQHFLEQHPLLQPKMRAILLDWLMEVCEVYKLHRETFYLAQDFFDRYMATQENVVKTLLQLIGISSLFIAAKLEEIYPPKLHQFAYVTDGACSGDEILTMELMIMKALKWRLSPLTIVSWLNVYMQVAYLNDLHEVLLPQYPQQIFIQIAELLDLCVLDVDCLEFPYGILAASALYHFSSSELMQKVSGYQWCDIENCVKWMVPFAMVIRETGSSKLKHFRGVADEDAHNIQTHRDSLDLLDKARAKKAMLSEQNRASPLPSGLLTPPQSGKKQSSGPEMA
Experiment: NanoBRET live-cell target engagement, CDK1-NanoLuc/Cyclin E1 in HEK-293
Assay type: binding
Conditions: CDK1/E1; read-out: IC50 (nM) Replicate 3
Recorded Endpoint: IC50 (nM)
Answers are plain numbers, in nM.

Report IC50 under test system CDK1/Cyclin E1 (Homo sapiens, UniProt P06493) for CCCCOc1c(C(=O)c2c(F)cc(C)cc2F)c[nH]c2nncc1-2 .
11

* * *

Target: CDK16/Cyclin Y (Homo sapiens)
Experiment: NanoBRET live-cell target engagement, CDK16-NanoLuc/Cyclin Y in HEK-293
Format: binding
Details: 10µM; independent experiment 2; read-out: CDK16/Y Inhibition at 10µM (%)
Class Satisfied: inhibition at 10 µM at least 80%. Class Not satisfied: inhibition at 10 µM below 80%.

Does the reported inhibition at 10 µM for CC(=O)c1c(C)c2cnc(Nc3ccc(N4CCNCC4)cn3)nc2n(C2CCCC2)c1=O [Palbociclib] fall at or above the 80% mark?
Satisfied

Confirm if inhibition at 10 µM reported for the molecule CC(C)[C@H](CO)Nc1nc(Nc2ccc(C(=O)O)c(Cl)c2)c2ncn(C(C)C)c2n1 [Purvalanol B] is 80% or above.
Not satisfied

inhibition at 10 µM >= 80% for CN(C)C/C=C/C(=O)Nc1ccc(C(=O)N2CCC[C@@H](Nc3ncc(Cl)c(-c4c[nH]c5ccccc45)n3)C2)cc1 [THZ531] ?
Not satisfied

Decide: inhibition at 10 µM of CC(C)CC(=O)Nc1[nH]nc2c1CN(C(=O)C1CCN(C)CC1)C2(C)C [PHA-793887] >= 80%?
Satisfied

State whether the measured inhibition at 10 µM reaches 80%, counting equality as reaching it, for CN1CCN(c2ccc(Nc3ncc4cc5n(c4n3)C3(CCCCC3)CNC5=O)nc2)CC1 [Trilaciclib]
Not satisfied

Test whether the molecule CN1C/C=C/CCOc2cccc(c2)-c2ccnc(n2)Nc2cccc(c2)C1 [SB1317] records inhibition at 10 µM of 80% or higher.
Satisfied

* * *

Target: CDK10/Cyclin L2 (Homo sapiens, UniProt Q15131)
Sequence (Q15131 whole entry): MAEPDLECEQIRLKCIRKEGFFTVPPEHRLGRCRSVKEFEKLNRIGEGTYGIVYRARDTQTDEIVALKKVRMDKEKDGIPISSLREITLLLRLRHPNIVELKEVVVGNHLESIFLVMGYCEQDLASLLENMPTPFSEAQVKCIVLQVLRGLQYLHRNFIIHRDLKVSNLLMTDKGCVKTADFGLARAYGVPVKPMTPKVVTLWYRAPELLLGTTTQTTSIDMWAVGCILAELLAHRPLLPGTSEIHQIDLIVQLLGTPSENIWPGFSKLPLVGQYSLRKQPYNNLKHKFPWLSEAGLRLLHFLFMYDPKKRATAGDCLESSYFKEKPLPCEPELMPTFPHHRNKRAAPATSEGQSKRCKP
Assay: NanoBRET live-cell target engagement, CDK10-NanoLuc/Cyclin L2 in HEK-293
Settings: IC50 for CDK/cyclin complexes, CDK10/L2, live HEK-293, 2 h; mean ± S.E.M. (n=3) or mean (n=2)
Would you mind telling me the reported IC50 of each entry?
Give bare numbers, in nM.

COCCN1CCN(Cc2ccc(-c3n[nH]c4c3C(=O)c3c(NC(=O)NN5CCOCC5)cccc3-4)cc2)CC1 [RGB286638]    790

Please look at the following compound next.
Please give the documented IC50 of CN1C/C=C/CCOc2cccc(c2)-c2ccnc(n2)Nc2cccc(c2)C1 [SB1317]
520

* * *

Target: CDK8/Cyclin C (Homo sapiens, UniProt P49336)
Sequence (P49336 whole entry): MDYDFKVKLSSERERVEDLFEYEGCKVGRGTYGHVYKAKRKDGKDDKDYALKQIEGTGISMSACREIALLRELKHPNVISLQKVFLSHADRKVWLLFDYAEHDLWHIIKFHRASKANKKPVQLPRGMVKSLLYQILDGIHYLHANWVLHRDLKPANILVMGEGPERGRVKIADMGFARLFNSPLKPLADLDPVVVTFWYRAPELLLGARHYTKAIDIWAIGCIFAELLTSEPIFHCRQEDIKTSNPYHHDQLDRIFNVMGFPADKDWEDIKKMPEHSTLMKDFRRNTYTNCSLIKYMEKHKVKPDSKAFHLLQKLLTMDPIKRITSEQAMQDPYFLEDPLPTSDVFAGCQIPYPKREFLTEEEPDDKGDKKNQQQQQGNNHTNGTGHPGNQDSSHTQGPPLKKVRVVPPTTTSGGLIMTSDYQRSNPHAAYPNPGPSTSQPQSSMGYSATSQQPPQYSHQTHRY
Sequence (P24863 whole entry partner): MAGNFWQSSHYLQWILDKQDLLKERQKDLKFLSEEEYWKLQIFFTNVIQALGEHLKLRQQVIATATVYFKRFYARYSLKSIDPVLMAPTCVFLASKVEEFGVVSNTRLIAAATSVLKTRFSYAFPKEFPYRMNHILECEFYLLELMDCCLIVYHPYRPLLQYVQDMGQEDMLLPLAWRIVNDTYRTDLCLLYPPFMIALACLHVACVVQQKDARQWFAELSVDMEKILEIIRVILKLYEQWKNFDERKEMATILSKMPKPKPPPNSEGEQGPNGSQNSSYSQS
Experiment: NanoBRET live-cell target engagement, NanoLuc-CDK8/Cyclin C in HEK-293
Type: binding
Settings: CDK8/C; experiment 2; read-out: Inhibition at 10µM (%)
Recorded Endpoint: inhibition at 10 µM
Show the value, then the unit it is measured in.

Worked examples, 5 molecules total:
CNC(=O)c1nn(C)c2c1C(C)(C)Cc1cnc(Nc3ccc(N4CCN(C)CC4)cc3)nc1-2    -12.1%
CC(C)c1cnn2c(NCc3ccccc3)cc(NC[C@H]3CCNC[C@@H]3O)nc12    3.3%
CN1CCN(Cc2ccc(NC(=O)Nc3ccc(Oc4ccnc(N)n4)cc3)cc2C(F)(F)F)CC1    94.5%
CN1CC[C@H](c2c(O)cc(O)c3c(=O)cc(-c4ccccc4Cl)oc23)[C@H](O)C1    94.9%
CN1CCN(c2ccc(Nc3ncc4cc(C#N)c(=O)n(C5CCCC5)c4n3)cc2)CC1    10.8%

// for each molecule below, give its inhibition at 10 µM
1. NS(=O)(=O)c1ccc(Nc2nc(OCC3CCCCC3)c3nc[nH]c3n2)cc1
2. CC(C)N1CCN(c2ccc(Nc3ncc4cc5n(c4n3)C3(CCCCC3)CNC5=O)nc2)CC1
3. COc1ccccc1-c1cc(Nc2cccc(CS(N)(=O)=O)c2)ncn1
4. COc1ccc(F)cc1-c1cc(NC(=O)C2CCCNC2)ncc1Cl (stereo not drawn)

1. 5.4%
2. 3%
3. 5.6%
4. 50%

I have 3 molecules here; please give me inhibition at 10 µM for each one.
1. CCc1cnn2c(NCc3ccc[n+]([O-])c3)cc(N3CCCC[C@H]3CCO)nc12
2. CC(C)(C)c1nc(-c2cccc(NS(=O)(=O)c3c(F)cccc3F)c2F)c(-c2ccnc(N)n2)s1
3. N#CCNC(=O)c1ccc(-c2ccnc(Nc3ccc(N4CCOCC4)cc3)n2)cc1

1: 8.4%; 2: -2.4%; 3: -10.8%

* * *

Target: CDK15/Cyclin Y (Homo sapiens, UniProt Q96Q40)
Assay: NanoBRET live-cell target engagement, NanoLuc-CDK15/Cyclin Y in HEK-293
Type: binding
Settings: 10µM; average of experiments; read-out: CDK15/Y Inhibition at 10µM (%)
Recorded Endpoint: inhibition at 10 µM (%)
One number for each entry, in %.

CN(C)C/C=C/C(=O)Nc1ccc(C(=O)N2CCC[C@@H](Nc3ncc(Cl)c(-c4c[nH]c5ccccc45)n3)C2)cc1    80.5

Below are 3 molecules. Give each one its inhibition at 10 µM.
1. CN1CCN(c2ccc(Nc3ncc4cc5n(c4n3)C3(CCCCC3)CNC5=O)nc2)CC1
2. CC(C)CC(=O)Nc1[nH]nc2c1CN(C(=O)C1CCN(C)CC1)C2(C)C
3. CC(C)[C@H](CO)Nc1nc(Nc2ccc(C(=O)O)c(Cl)c2)c2ncn(C(C)C)c2n1

8
72.5
0.0365

// fetch inhibition at 10 µM for CN1C/C=C/CCOc2cccc(c2)-c2ccnc(n2)Nc2cccc(c2)C1 ; system: CDK15/Cyclin Y (Homo sapiens, UniProt Q96Q40)
98.1

* * *

Biological target: CDK12/Cyclin K (Homo sapiens, UniProt Q9NYV4)
Sequence (Q9NYV4 1-1481 isoform Q9NYV4-2): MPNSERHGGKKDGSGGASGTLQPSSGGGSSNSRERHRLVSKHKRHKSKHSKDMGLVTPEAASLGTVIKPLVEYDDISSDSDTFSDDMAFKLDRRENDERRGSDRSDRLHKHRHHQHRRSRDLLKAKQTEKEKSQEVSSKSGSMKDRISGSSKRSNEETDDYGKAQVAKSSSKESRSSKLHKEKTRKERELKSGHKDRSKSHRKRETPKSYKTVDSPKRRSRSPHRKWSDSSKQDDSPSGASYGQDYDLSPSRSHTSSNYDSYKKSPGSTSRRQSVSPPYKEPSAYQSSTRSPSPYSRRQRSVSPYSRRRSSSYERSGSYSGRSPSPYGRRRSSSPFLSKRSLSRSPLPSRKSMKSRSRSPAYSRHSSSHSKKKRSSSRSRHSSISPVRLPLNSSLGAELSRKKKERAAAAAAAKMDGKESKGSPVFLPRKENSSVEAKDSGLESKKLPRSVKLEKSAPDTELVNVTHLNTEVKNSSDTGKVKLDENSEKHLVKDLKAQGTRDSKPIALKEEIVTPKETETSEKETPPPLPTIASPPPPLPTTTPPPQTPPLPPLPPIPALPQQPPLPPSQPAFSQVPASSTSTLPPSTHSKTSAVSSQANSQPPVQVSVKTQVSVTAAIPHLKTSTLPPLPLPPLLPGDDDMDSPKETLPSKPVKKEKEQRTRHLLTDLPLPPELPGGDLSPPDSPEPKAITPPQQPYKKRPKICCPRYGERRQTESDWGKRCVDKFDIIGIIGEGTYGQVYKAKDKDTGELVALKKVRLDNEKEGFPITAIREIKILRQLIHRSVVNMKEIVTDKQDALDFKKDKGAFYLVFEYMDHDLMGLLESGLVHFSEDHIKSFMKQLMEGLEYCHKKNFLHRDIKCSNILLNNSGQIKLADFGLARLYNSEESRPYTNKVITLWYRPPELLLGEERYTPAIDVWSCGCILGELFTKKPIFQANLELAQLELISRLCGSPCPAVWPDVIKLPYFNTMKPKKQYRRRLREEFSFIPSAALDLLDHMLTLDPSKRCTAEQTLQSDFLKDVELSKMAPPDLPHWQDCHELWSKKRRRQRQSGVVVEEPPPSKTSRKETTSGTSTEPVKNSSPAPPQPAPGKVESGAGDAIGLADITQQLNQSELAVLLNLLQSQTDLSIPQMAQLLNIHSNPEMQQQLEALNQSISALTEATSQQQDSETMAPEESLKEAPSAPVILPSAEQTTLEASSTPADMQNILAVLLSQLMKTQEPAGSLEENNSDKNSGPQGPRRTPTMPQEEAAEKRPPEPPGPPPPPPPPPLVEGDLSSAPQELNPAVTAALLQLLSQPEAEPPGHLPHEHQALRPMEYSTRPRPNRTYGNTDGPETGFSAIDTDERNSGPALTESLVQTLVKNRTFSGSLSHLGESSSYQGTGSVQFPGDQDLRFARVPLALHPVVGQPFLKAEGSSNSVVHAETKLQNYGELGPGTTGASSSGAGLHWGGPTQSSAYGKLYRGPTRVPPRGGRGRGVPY
Sequence (O75909 whole entry partner): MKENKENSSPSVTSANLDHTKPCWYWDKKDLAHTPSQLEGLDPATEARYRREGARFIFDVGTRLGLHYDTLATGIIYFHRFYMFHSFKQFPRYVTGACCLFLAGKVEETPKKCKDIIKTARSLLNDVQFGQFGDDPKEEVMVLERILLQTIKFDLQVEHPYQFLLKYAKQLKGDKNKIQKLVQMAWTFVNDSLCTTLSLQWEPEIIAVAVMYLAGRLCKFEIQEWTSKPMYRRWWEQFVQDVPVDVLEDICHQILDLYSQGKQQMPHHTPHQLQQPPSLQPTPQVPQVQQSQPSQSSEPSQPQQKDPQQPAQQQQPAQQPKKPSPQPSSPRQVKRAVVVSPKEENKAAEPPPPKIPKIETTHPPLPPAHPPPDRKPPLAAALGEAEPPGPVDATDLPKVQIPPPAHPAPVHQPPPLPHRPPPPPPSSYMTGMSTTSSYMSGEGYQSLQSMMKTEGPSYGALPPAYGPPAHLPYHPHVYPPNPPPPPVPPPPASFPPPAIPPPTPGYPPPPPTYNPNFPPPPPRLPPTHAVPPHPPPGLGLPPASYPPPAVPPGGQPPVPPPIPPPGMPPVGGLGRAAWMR
Experiment: NanoBRET live-cell target engagement, CDK12-NanoLuc/Cyclin K in HEK-293
Type: binding
Conditions: CDK12/K; experiment 1; read-out: Inhibition at 10µM (%)
Recorded Endpoint: inhibition at 10 µM (%)
Answers are plain numbers, in %.

Please review the entries below; each comes with its answer.
CNC(=O)c1nn(C)c2c1C(C)(C)Cc1cnc(Nc3ccc(N4CCN(C)CC4)cc3)nc1-2 [Milciclib]    16.8
CN1CC[C@H](c2c(O)cc(O)c3c(=O)cc(-c4ccccc4Cl)oc23)[C@H](O)C1 [Flavopiridol]    51.7
CC(C)c1cnn2c(NCc3ccccc3)cc(NC[C@H]3CCNC[C@@H]3O)nc12 [CT7001]    42.1
CN1CCN(c2ccc(Nc3ncc4cc(C#N)c(=O)n(C5CCCC5)c4n3)cc2)CC1 [ON123300]    -2.7
CC(C)(C)c1nc(-c2cccc(NS(=O)(=O)c3c(F)cccc3F)c2F)c(-c2ccnc(N)n2)s1 [Dabrafenib]    5.9
CC(C)N1CCN(c2ccc(Nc3ncc4cc5n(c4n3)C3(CCCCC3)CNC5=O)nc2)CC1 [Lerociclib]    -0.9
Cn1cc(-c2ccc(-c3cncc(Cl)c3N3CCC4(CCNC4=O)CC3)cc2)cn1 [CCT251545]    2.5
NS(=O)(=O)c1ccc(Nc2nc(OCC3CCCCC3)c3nc[nH]c3n2)cc1 [NU6102]    8.2

Hi! Can you tell me inhibition at 10 µM for each of these molecules?
1. N#CCNC(=O)c1ccc(-c2ccnc(Nc3ccc(N4CCOCC4)cc3)n2)cc1 [Momelotinib]
2. CN1CCN(Cc2ccc(NC(=O)Nc3ccc(Oc4ccnc(N)n4)cc3)cc2C(F)(F)F)CC1 [K03861]

[5.9, 39]
